test system: RAW-Dual (murine macrophage reporter line); assay: NF-kB reporter (SEAP) activity fold change vs agonist alone; higher = enhanced NF-kB activity; conditions: modulator concentration 10 µM; agonist: MPLA […]
Label Y for high-side NF-kB reporter (at or above 1) and N for low-side NF-kB reporter (below it).

## Input Does NF-kB reporter meet or surpass 1 for Cc1ccc(OCCCOc2cccc3cccnc23)c(C)c1 ?
## Output Y

## Input Does NF-kB reporter meet or surpass 1 for Br.O=S(=O)(c1ccc(-c2csc(Nc3ccc(Br)cc3)n2)cc1)N1CCOCC1 ?
## Output Y

## Input Does NF-kB reporter meet or surpass 1 for CC1=CC(=O)c2ccccc2C1=O ?
## Output Y

## Input Does NF-kB reporter meet or surpass 1 for COc1cc2c(Oc3ccc(NC(=O)C4(C(=O)Nc5ccc(F)cc5)CC4)cc3F)ccnc2cc1OCCCN1CCOCC1 ?
## Output N

## Input Does NF-kB reporter meet or surpass 1 for CCOC(=O)CNS(=O)(=O)c1ccc([N+](=O)[O-])cc1 ?
## Output Y

## Input Does NF-kB reporter meet or surpass 1 for Clc1ccccc1C1Nc2cccc3cccc(c23)N1 ?
## Output N

## Input Does NF-kB reporter meet or surpass 1 for CC1=C(C(=O)OCc2ccc3c(c2)OCO3)C(c2ccc(Cl)c(Cl)c2)NC(=O)N1 (stereo unspecified) ?
## Output Y

## Input Does NF-kB reporter meet or surpass 1 for COc1ccc(NC(=O)CN(c2ccc(C)c(C)c2)S(C)(=O)=O)cc1 ?
## Output Y

## Input Does NF-kB reporter meet or surpass 1 for Cc1ncc(CC(=O)N2CCC(c3ccccc3F)S(=O)(=O)CC2)s1 (stereo unspecified) ?
## Output N

## Input Does NF-kB reporter meet or surpass 1 for C1N2CN3CN1CN(C2)C3 ?
## Output Y

## Input Does NF-kB reporter meet or surpass 1 for O=c1cc(-c2ccccc2)oc2cc(O)c(O)c(O)c12 ?
## Output Y

## Input Does NF-kB reporter meet or surpass 1 for COc1ccc(-c2ccc(OCCNC(=O)Cc3ccc(Br)cc3)nn2)cc1 ?
## Output N

## Input Does NF-kB reporter meet or surpass 1 for COc1ccccc1OCCNCC(O)COc1cccc2[nH]c3ccccc3c12 (stereo unspecified) ?
## Output N

## Input Does NF-kB reporter meet or surpass 1 for COC(=O)N[C@H](C(=O)N[C@@H](Cc1ccccc1)[C@@H](O)CN(Cc1ccc(-c2ccccn2)cc1)NC(=O)[C@@H](NC(=O)OC)C(C)(C)C)C(C)(C)C.O=S(=O)(O)O ?
## Output Y

## Input Does NF-kB reporter meet or surpass 1 for COc1ccc(Oc2coc3cc(OC(=O)c4ccc(Cl)c([N+](=O)[O-])c4)ccc3c2=O)cc1 ?
## Output Y

====

system: RAW-Dual (murine macrophage reporter line); assay: NF-kB reporter (SEAP) activity fold change vs agonist alone; higher = enhanced NF-kB activity; settings: modulator concentration 10 µM; agonist: MPLA […]
Provide the reported NF-kB reporter of each item.
Note: the reply should be a number with no unit written.

Entry O=C(C1=C(O)C(=O)N(c2nccs2)C1c1ccccc1)c1cc2ccccc2o1 (stereo unspecified) — recorded NF-kB reporter = 0.97

Entry O=C1Cc2cc(NC(=O)c3ccc(OC(F)(F)F)cc3)ccc2N1 — recorded NF-kB reporter = 0.998

Entry O=C(NCC1(O)CCc2ccccc2C1)c1cccc(C(F)(F)F)c1 (stereo unspecified) — recorded NF-kB reporter = 0.957

Entry O=c1c(-c2ccccc2)coc2cc(O)ccc12 — recorded NF-kB reporter = 1.13

Entry CCc1ccc(NC(=O)CSc2nc3c([nH]c4ccccc43)c(=O)n2C)cc1 — recorded NF-kB reporter = 0.776

Entry CCOC(N)=O — recorded NF-kB reporter = 0.948

Entry COC(=O)c1ccc2c(c1)NC(=O)/C2=C(\Nc1ccc(N(C)C(=O)CN2CCN(C)CC2)cc1)c1ccccc1 — recorded NF-kB reporter = 1.02

Entry Cc1ccc(S(=O)(=O)n2cnc3ccccc32)cc1 — recorded NF-kB reporter = 1.02

Entry Cc1c(C(=O)NN2CCCCC2)nn(-c2ccc(Cl)cc2Cl)c1-c1ccc(Cl)cc1 — recorded NF-kB reporter = 0.981

Entry CNC(C)CCC=C(C)C.CNC(C)CCC=C(C)C (stereo unspecified) — recorded NF-kB reporter = 1.01

Entry COC(=O)C1=CN(CC2CCCO2)C=C(C(=O)OC)C1c1cccc(Cl)c1 (stereo unspecified) — recorded NF-kB reporter = 0.83
